# TARGET ENTITY: IKZF2 (Helios) (Homo sapiens, UniProt Q96SW2+Q9UKS7)
# Construct: Leu-Asp junction (codons ctcgac before the linker); mScarlet (behind P2A) (C, cleaved yes); expressed in transfected cells
# EXPERIMENT NOTES: IKZF2 reporter degradation assay (HEK 293T IKZF2-mNeonGreen reporter cell line)
# Format: cell-based
# REPORTED CONDITIONS: HEK-293T, 24 h, @ 1 μM, HEK 293T IKZF2-mNeonGreen reporter, 24 hours incubation
QUANTITY: inhibition at 1 µM (%)

O=C1CCC(N2Cc3cc(O[C@H]4CCCC[C@@H]4N4CC(c5ccnc6[nH]ccc56)C4)ccc3C2=O)C(=O)N1 (single isomer, unassigned) :: 29.7

[a] O=C1CCC(N2Cc3cc(O[C@H]4CCCC[C@H]4N4CC(c5cncc(Cl)c5)C4)ccc3C2=O)C(=O)N1 (single isomer, unassigned)
[b] Cc1cnc(C2CN([C@H]3CCCC[C@H]3Oc3ccc4c(c3)CN(C3CCC(=O)NC3=O)C4=O)C2)nc1 (mixture of isomers)
Exercise: Which is greater in inhibition at 1 µM, the first item a or the second item b ? I would appreciate it if you answered with the label of your choice.
Key: b
(b: 79.6%, a: 21.7%)

* * *

# TARGET ENTITY: IKZF2 (Helios) (Homo sapiens, UniProt Q96SW2+Q9UKS7)
# Construct: Leu-Asp junction (codons ctcgac before the linker); mScarlet (behind P2A) (C, cleaved yes); expressed in transfected cells
# EXPERIMENT NOTES: IKZF2 reporter degradation assay (HEK 293T IKZF2-mNeonGreen reporter cell line)
# Format: cell-based
# REPORTED CONDITIONS: HEK-293T, 24 h, @ 1 μM, HEK 293T IKZF2-mNeonGreen reporter, 24 hours incubation
QUANTITY: inhibition at 1 µM (%)

Worked cases, inhibition at 1 µM given:
O=C1CCC(N2Cc3cc(O[C@H]4CCCC[C@@H]4N4CC(c5ncc(Br)cn5)C4)ccc3C2=O)C(=O)N1 (single isomer, unassigned) [Compound 108-B] :: 74.6
O=C1CCC(N2Cc3cc(O[C@@H]4CCCC[C@@H]4N4CC(c5ccc6ccccc6n5)C4)ccc3C2=O)C(=O)N1 (single isomer, unassigned) [Compound 91-B] :: 47.3
O=C1CCC(N2Cc3cc(OC4CCCCC4N4CC(c5cccc6[nH]ncc56)C4)ccc3C2=O)C(=O)N1 (stereo not shown) :: 79.3
O=C1CCC(N2Cc3cc(OC4CCCCC4N4CC(c5ncc(C6CC6)cn5)C4)ccc3C2=O)C(=O)N1 (stereo not shown) :: 70.3

[A] O=C1CCC(N2Cc3cc(O[C@@H]4CCCC[C@@H]4N4CC(c5ccncc5Cl)C4)ccc3C2=O)C(=O)N1 (mixture of isomers)
[B] O=C1CCC(N2Cc3cc(OC4CCCCC4N4CC(c5cncnc5)C4)ccc3C2=O)C(=O)N1 (stereo not shown)
Exercise: Which is greater in inhibition at 1 µM, the first item A or the second item B ? I would appreciate it if you answered with the label of your choice.
Key: A

[P] O=C1CCC(N2Cc3cc(O[C@H]4CCCC[C@@H]4N4CC(c5cncc(Cl)c5)C4)ccc3C2=O)C(=O)N1 (single isomer, unassigned)
[Q] O=C1CCC(N2Cc3cc(O[C@H]4CCCC[C@@H]4N4CC(c5ccncc5F)C4)ccc3C2=O)C(=O)N1 (mixture of isomers) [Compound 167-B]
Exercise: Hi! Which is lower in terms of inhibition at 1 µM, the first one P or the second one Q ? I would appreciate it if you answered with the label of your choice.
Key: Q
(Q: 28.8%, P: 73.7%)

[a] O=C1CCC(N2Cc3cc(O[C@@H]4CCCC[C@@H]4N4CC(c5ccc6ccccc6n5)C4)ccc3C2=O)C(=O)N1 (mixture of isomers) [Compound 146-B]
[b] Cc1cnc(C2CN([C@H]3CCCC[C@@H]3Oc3ccc4c(c3)CN(C3CCC(=O)NC3=O)C4=O)C2)nc1 (mixture of isomers)
Exercise: Hi! Which is lower in terms of inhibition at 1 µM, the first one a or the second one b ? I would appreciate it if you answered with the label of your choice.
Key: b

* * *

# TARGET ENTITY: IKZF2 (Helios) (Homo sapiens, UniProt Q9UKS7)
# Construct: Leu-Asp junction (codons ctcgac before the linker); mScarlet (behind P2A) (C, cleaved yes); expressed in transfected cells
# Sequence (Q9UKS7 whole entry): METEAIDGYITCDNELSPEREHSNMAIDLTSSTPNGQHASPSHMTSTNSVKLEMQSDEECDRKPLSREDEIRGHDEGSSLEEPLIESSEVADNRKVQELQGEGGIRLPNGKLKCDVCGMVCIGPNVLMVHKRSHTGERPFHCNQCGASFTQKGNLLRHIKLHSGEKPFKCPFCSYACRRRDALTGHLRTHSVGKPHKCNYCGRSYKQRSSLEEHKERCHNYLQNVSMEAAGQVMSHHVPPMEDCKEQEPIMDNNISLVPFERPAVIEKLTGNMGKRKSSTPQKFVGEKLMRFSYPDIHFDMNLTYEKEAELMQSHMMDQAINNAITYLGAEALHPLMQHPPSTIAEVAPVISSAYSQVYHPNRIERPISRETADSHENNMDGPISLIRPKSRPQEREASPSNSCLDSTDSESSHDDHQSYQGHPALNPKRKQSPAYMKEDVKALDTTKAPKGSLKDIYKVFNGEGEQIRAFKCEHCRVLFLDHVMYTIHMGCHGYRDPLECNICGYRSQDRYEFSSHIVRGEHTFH
# Sequence (Q96SW2 whole entry, further chain): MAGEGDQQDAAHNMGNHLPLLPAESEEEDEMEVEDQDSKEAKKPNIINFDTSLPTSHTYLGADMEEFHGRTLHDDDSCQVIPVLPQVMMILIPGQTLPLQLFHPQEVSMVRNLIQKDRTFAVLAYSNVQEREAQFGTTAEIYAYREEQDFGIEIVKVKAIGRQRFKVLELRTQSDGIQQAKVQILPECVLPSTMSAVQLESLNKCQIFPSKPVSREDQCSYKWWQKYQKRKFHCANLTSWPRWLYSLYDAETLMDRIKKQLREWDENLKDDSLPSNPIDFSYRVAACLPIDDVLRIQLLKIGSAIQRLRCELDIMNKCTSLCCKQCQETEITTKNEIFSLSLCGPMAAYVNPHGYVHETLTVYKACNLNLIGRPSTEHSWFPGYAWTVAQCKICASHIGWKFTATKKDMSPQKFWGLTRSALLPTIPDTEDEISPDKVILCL
# Sequence (Q16531 whole entry partner): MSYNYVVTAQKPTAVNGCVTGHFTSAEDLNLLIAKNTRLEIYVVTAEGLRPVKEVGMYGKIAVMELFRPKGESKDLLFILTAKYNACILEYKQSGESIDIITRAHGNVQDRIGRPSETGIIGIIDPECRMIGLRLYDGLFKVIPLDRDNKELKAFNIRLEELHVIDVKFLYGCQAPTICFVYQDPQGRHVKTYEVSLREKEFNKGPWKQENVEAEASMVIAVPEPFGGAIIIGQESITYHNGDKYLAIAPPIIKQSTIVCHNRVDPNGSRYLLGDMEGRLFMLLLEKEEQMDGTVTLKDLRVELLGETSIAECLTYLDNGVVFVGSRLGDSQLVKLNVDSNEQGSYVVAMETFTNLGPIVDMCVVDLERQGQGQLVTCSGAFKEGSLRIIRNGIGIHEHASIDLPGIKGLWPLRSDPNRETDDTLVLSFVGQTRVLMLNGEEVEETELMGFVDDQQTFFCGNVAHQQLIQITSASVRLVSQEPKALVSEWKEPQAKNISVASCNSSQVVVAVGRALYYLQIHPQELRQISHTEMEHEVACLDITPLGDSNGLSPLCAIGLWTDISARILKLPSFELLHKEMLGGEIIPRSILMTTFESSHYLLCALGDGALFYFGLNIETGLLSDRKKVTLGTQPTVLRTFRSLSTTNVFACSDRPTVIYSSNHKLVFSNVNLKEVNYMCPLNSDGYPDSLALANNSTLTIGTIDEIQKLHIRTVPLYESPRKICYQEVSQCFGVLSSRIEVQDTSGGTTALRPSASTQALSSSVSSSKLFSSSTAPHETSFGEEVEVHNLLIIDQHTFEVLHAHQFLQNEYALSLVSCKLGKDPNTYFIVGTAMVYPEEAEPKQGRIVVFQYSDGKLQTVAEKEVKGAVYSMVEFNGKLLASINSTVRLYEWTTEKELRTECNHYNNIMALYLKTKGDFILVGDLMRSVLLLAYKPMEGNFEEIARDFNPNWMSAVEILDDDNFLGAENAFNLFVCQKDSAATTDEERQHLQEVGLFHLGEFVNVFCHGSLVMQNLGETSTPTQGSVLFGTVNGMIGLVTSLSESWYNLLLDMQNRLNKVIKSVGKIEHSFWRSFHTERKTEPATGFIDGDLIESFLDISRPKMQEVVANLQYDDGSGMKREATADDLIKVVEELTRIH
# EXPERIMENT NOTES: IKZF2 reporter degradation assay (HEK 293T IKZF2-mNeonGreen reporter cell line)
# Assay type: cell-based
# REPORTED CONDITIONS: HEK 293T IKZF2-mNeonGreen reporter, 24 hours incubation
QUANTITY: DC50 (nM)

O=C1CCC(N2Cc3cc(O[C@H]4CCCC[C@@H]4N4CC(c5ccc(C(F)(F)F)cn5)C4)ccc3C2=O)C(=O)N1 (single isomer, unassigned) [Compound 130-B] :: 5
O=C1CCC(N2Cc3cc(O[C@H]4CCCC[C@@H]4N4CC(C5CCOC5)C4)ccc3C2=O)C(=O)N1 (stereo partly drawn) :: 28
O=C1CCC(N2Cc3cc(OC4CCCC4N4CC(c5ccc(C(F)(F)F)cn5)C4)ccc3C2=O)C(=O)N1 (stereo not drawn) :: 130

[1] O=C1CCC(N2Cc3cc(O[C@H]4CCCC[C@@H]4N4CC(c5ccc6[nH]ncc6c5)C4)ccc3C2=O)C(=O)N1 (stereo partly drawn)
[2] O=C1CCC(N2Cc3cc(O[C@H]4CCCC[C@@H]4N4CC(C5CCN(S(=O)(=O)C6CCC6)CC5)C4)ccc3C2=O)C(=O)N1 (stereo partly drawn)
Exercise: Which is greater in DC50, the first item 1 or the second item 2 ? I would appreciate it if you answered with the label of your choice.
Key: 1
(1: 22 nM, 2: 2 nM)

* * *

# TARGET ENTITY: IKZF2 (Helios) (Homo sapiens)
# Construct: Leu-Asp junction (codons ctcgac before the linker); mScarlet (behind P2A) (C, cleaved yes); expressed in transfected cells
# EXPERIMENT NOTES: IKZF2 reporter degradation assay (HEK 293T IKZF2-mNeonGreen reporter cell line)
# Format: cell-based
# REPORTED CONDITIONS: HEK 293T IKZF2-mNeonGreen reporter, 24 hours incubation
# Description: Polycistronic plasmids were constructed for the mammalian expression of fluorescent reporter fusions of human transcription factors IKZF1 (Ikaros), IKZF2 (Helios), and IKZF3 (Aiolos). […] The DNA sequences of the open reading frames are as follows: […] The IKZF1/IKZF2/IKZF3 degradation assays were carried out by harvesting the HEK 293T reporter cell lines and resuspending the cells in media formulated for reduced background fluorescence (FluoroBrite; Thermo Fisher). […]
QUANTITY: DC50 (nM)

Worked cases, DC50 given:
COc1ccc(C2CN([C@H]3CCCC3Oc3ccc4c(c3)CN(C3CCC(=O)NC3=O)C4=O)C2)cn1 (mixture of isomers) [Compound 201-B] :: 78
Cc1cnc(C2CN([C@H]3CCCC[C@H]3Oc3ccc4c(c3)CN(C3CCC(=O)NC3=O)C4=O)C2)o1 (mixture of isomers) :: 28
O=C1CCC(N2Cc3cc(O[C@H]4CCCC[C@@H]4N4CC(c5cncc(Cl)c5)C4)ccc3C2=O)C(=O)N1 (single isomer, unassigned) [Compound 116-B] :: 4
CC1(C(=O)N2CCC(C3CN([C@H]4CCCC[C@@H]4Oc4ccc5c(c4)CN(C4CCC(=O)NC4=O)C5=O)C3)CC2)COC1 (stereo partly drawn) :: 11
O=C1CCC(N2Cc3cc(O[C@@H]4CCCC[C@H]4N4CC(c5ccc(Cl)cn5)C4)ccc3C2=O)C(=O)N1 (mixture of isomers) :: 11
O=C1CCC(N2Cc3cc(O[C@H]4CCCC[C@@H]4N4CC(c5ccc(C(F)(F)F)cn5)C4)ccc3C2=O)C(=O)N1 (single isomer, unassigned) [Compound 131-B] :: 5
O=C1CCC(N2Cc3cc(OC4CCCCC4N4CC(c5cccnn5)C4)ccc3C2=O)C(=O)N1 (stereo not drawn) :: 605
O=C1CCC(N2Cc3cc(O[C@H]4CCCC[C@@H]4N4CC(C5CCN(C(=O)C6CC(F)(F)C6)CC5)C4)ccc3C2=O)C(=O)N1 (stereo partly drawn) :: 1

[a] O=C1CCC(N2Cc3cc(O[C@H]4CCCC[C@@H]4N4CC(c5ccc(C(F)(F)F)cn5)C4)ccc3C2=O)C(=O)N1 (mixture of isomers) [Compound 192-B]
[b] O=C1CCC(N2Cc3cc(O[C@H]4CCCC[C@H]4N4CC(c5ccncc5)C4)ccc3C2=O)C(=O)N1 (single isomer, unassigned) [Compound 86-B]
Exercise: Hi! Which is lower in terms of DC50, the first one a or the second one b ? I would appreciate it if you answered with the label of your choice.
Key: a

* * *

# TARGET ENTITY: IKZF2 (Helios) (Homo sapiens, UniProt Q9UKS7)
# Construct: Leu-Asp junction (codons ctcgac before the linker); mScarlet (behind P2A) (C, cleaved yes); expressed in transfected cells
# EXPERIMENT NOTES: IKZF2 reporter degradation assay (HEK 293T IKZF2-mNeonGreen reporter cell line)
# Format: cell-based
# REPORTED CONDITIONS: HEK 293T IKZF2-mNeonGreen reporter, 24 hours incubation
QUANTITY: DC50 (nM)

Worked cases, DC50 given:
CC(=O)N1CCC(C2CN([C@H]3CCCC[C@@H]3Oc3ccc4c(c3)CN(C3CCC(=O)NC3=O)C4=O)C2)CC1 (stereo partly drawn) :: 12
O=C1CCC(N2Cc3cc(O[C@H]4CCCC[C@@H]4N4CC(c5ccc(C(F)(F)F)nc5)C4)ccc3C2=O)C(=O)N1 (single isomer, unassigned) [Compound 126-B] :: 6
Cc1cnc(C2CN([C@H]3CCCC[C@H]3Oc3ccc4c(c3)CN(C3CCC(=O)NC3=O)C4=O)C2)nc1 (mixture of isomers) :: 21
O=C1CCC(N2Cc3cc(O[C@H]4CCCC[C@@H]4N4CC(c5ccncc5F)C4)ccc3C2=O)C(=O)N1 (single isomer, unassigned) [Compound 102-B] :: 10
O=C1CCC(N2Cc3cc(O[C@H]4CCCC[C@@H]4N4CC(C5CCN(C6CCC6)CC5)C4)ccc3C2=O)C(=O)N1 (stereo partly drawn) :: 30
O=C1CCC(N2Cc3cc(O[C@H]4CCCC[C@@H]4N4CC(c5ncc(C6CC6)cn5)C4)ccc3C2=O)C(=O)N1 (single isomer, unassigned) [Compound 135-B] :: 13

[a] O=C1CCC(N2Cc3cc(O[C@H]4CCCC[C@@H]4N4CC(c5ccncc5Cl)C4)ccc3C2=O)C(=O)N1 (single isomer, unassigned) [Compound 95-B]
[b] O=C1CCC(N2Cc3cc(O[C@H]4CCCC[C@@H]4N4CC(C5CCN(C(=O)c6ccccc6)CC5)C4)ccc3C2=O)C(=O)N1 (stereo partly drawn)
[c] O=C1CCC(N2Cc3cc(O[C@@H]4CCCC[C@@H]4N4CC(c5cc(Cl)ccn5)C4)ccc3C2=O)C(=O)N1 (mixture of isomers)
[d] O=C1CCC(N2Cc3cc(OC4CCCC4N4CC(c5ccc6cccnc6c5)C4)ccc3C2=O)C(=O)N1 (stereo not drawn)
[e] O=C1CCC(N2Cc3cc(O[C@H]4CCCC[C@@H]4N4CC(c5ccncc5)C4)ccc3C2=O)C(=O)N1 (single isomer, unassigned)
Exercise: # rank by DC50, ascending (min first) Quick reminder: the answer is the labels in the order asked.
Key: b, c, a, d, e
(b: 6 nM, c: 9 nM, a: 23 nM, d: 46 nM, e: 216 nM)

[P] O=C1CCC(N2Cc3cc(O[C@H]4CCCC[C@@H]4N4CC(c5ncncc5Cl)C4)ccc3C2=O)C(=O)N1 (single isomer, unassigned) [Compound 93-B]
[Q] O=C1CCC(N2Cc3cc(O[C@H]4CCCC[C@@H]4N4CC(C5CCN(C(=O)C6(F)CC6)CC5)C4)ccc3C2=O)C(=O)N1 (stereo partly drawn)
[R] O=C1CCC(N2Cc3cc(O[C@H]4CCCC[C@H]4N4CC(c5ccc(Cl)cn5)C4)ccc3C2=O)C(=O)N1 (single isomer, unassigned) [Compound 98-B]
[S] O=C1CCC(N2Cc3cc(O[C@@H]4CCCC[C@@H]4N4CC(c5ncc(C(F)(F)F)cn5)C4)ccc3C2=O)C(=O)N1 (mixture of isomers) [Compound 186-B]
Exercise: # rank by DC50, ascending (min first) Quick reminder: the answer is the labels in the order asked.
Key: Q, S, P, R
(Q: 1 nM, S: 5 nM, P: 21 nM, R: 111 nM)

[P] O=C1CCC(N2Cc3cc(O[C@H]4CCCC[C@@H]4N4CC(c5ccc6ccccc6n5)C4)ccc3C2=O)C(=O)N1 (single isomer, unassigned) [Compound 89-B]
[Q] O=C1CCC(N2Cc3cc(O[C@@H]4CCCC[C@@H]4N4CC(c5ccc(C(F)(F)F)nc5)C4)ccc3C2=O)C(=O)N1 (mixture of isomers)
Exercise: Which is greater in DC50, the first item P or the second item Q ? I would appreciate it if you answered with the label of your choice.
Key: Q
